# Test system: Vibrio cholerae
# measurementNotes: growth AUC normalised to DMSO control (fraction of control); higher = less growth inhibition, active = hit call of the paper
# conditions: 20 µM
Where a name gives a salt, the structure may show the parent alone.
Assign growth AUC normalised to DMSO control to each entry below.
Just the number, please, no unit attached.

State measured growth AUC normalised to DMSO control of the molecule Cc1cc(C(C)(C)C)cc(C)c1CC1=NCCN1 [Xylometazoline hydrochloride] with Vibrio cholerae. 0.999

State measured growth AUC normalised to DMSO control of the molecule CC[C@H]1OC(=O)[C@H](C)[C@@H](O[C@H]2C[C@@](C)(OC)[C@@H](O)[C@H](C)O2)[C@H](C)[C@@H](O[C@@H]2O[C@H](C)C[C@H](N(C)C)[C@H]2O)[C@](C)(O)C[C@@H](C)CN(C)[C@H](C)[C@@H](O)[C@]1(C)O with Vibrio cholerae. 0.0396

State measured growth AUC normalised to DMSO control of the molecule CCc1c(C)[nH]c2c1C(=O)C(CN1CCOCC1)CC2 (stereo not given) [Molindone hydrochloride] with Vibrio cholerae. 1.04

State measured growth AUC normalised to DMSO control of the molecule CN(C)C(=N)NC(=N)N [Metformin hydrochloride] with Vibrio cholerae. 1.02

State measured growth AUC normalised to DMSO control of the molecule C#C[C@]1(OC(C)=O)CC[C@H]2[C@@H]3CCC4=C[C@@H](OC(C)=O)CC[C@@H]4[C@H]3CC[C@@]21C [Ethynodiol diacetate] with Vibrio cholerae. 0.963

State measured growth AUC normalised to DMSO control of the molecule C1CCC(C(CC2CCCCN2)C2CCCCC2)CC1 (stereo not given) [Perhexiline maleate] with Vibrio cholerae. 0.931

State measured growth AUC normalised to DMSO control of the molecule CC(=O)O[C@H]1C[C@@]2(C)[C@@H](C[C@@H](O)[C@H]3[C@@]4(C)CC[C@@H](O)[C@@H](C)[C@@H]4CC[C@@]32C)/C1=C(\CCC=C(C)C)C(=O)O [Fusidic acid sodium salt] with Vibrio cholerae. 0.927

State measured growth AUC normalised to DMSO control of the molecule COc1cc(N)c(Cl)cc1C(=O)NC1CCN(CCCOc2ccc(F)cc2)CC1OC (stereo not given) [Cisapride] with Vibrio cholerae. 0.929

State measured growth AUC normalised to DMSO control of the molecule CC(=O)O[C@H]1C(=O)[C@@]2(C)[C@H]([C@H](OC(=O)c3ccccc3)[C@]3(O)C[C@H](OC(=O)[C@H](O)[C@@H](NC(=O)c4ccccc4)c4ccccc4)C(C)=C1C3(C)C)[C@]1(OC(C)=O)CO[C@@H]1C[C@@H]2O with Vibrio cholerae. 1.02

State measured growth AUC normalised to DMSO control of the molecule Cc1ccc(C)c(OCCCC(C)(C)C(=O)O)c1 with Vibrio cholerae. 0.983

State measured growth AUC normalised to DMSO control of the molecule Cc1scc2c1N(C(=O)CN1CCN(C)CC1)c1ccccc1NC2=O [Telenzepine dihydrochloride] with Vibrio cholerae. 1.01

State measured growth AUC normalised to DMSO control of the molecule CC(C)(C)NC[C@H](O)COc1ccccc1C1CCCC1 [Penbutolol sulfate] with Vibrio cholerae. 1

State measured growth AUC normalised to DMSO control of the molecule CO[C@H]1/C=C/O[C@@]2(C)Oc3c(C)c(O)c4c(O)c(c(/C=N/N5CCN(C6CCCC6)CC5)c(O)c4c3C2=O)NC(=O)/C(C)=C\C=C\[C@H](C)[C@H](O)[C@@H](C)[C@@H](O)[C@@H](C)[C@H](OC(C)=O)[C@@H]1C with Vibrio cholerae. 1.03

State measured growth AUC normalised to DMSO control of the molecule NNC(=O)c1ccncc1 with Vibrio cholerae. 1.05

State measured growth AUC normalised to DMSO control of the molecule CO[C@@]1(NC(=O)C(C(=O)O)c2ccc(O)cc2)C(=O)N2C(C(=O)O)=C(CSc3nnnn3C)CO[C@@H]21 (stereo not given in full) [Moxalactam disodium salt] with Vibrio cholerae. 0.639

State measured growth AUC normalised to DMSO control of the molecule CN(c1nccc(=O)[nH]1)C1CCN(c2nc3ccccc3n2Cc2ccc(F)cc2)CC1 with Vibrio cholerae. 1.02

State measured growth AUC normalised to DMSO control of the molecule CC(C)(C)C(=O)OCOC(=O)[C@@H]1N2C(=O)[C@@H](NC(=O)[C@H](N)c3ccccc3)[C@H]2SC1(C)C with Vibrio cholerae. 0.987

State measured growth AUC normalised to DMSO control of the molecule C(=C\c1ccccc1)/CN1CCN(C(c2ccccc2)c2ccccc2)CC1 with Vibrio cholerae. 0.895

State measured growth AUC normalised to DMSO control of the molecule CC1(C)S[C@@H]2[C@H](NC(=O)[C@H](NC(=O)N3CCNC3=O)c3ccccc3)C(=O)N2[C@H]1C(=O)O [Azlocillin sodium salt] with Vibrio cholerae. 0.78

State measured growth AUC normalised to DMSO control of the molecule CC[N+](CC)(CC)CCOc1cccc(OCC[N+](CC)(CC)CC)c1OCC[N+](CC)(CC)CC [Gallamine triethiodide] with Vibrio cholerae. 1.01

State measured growth AUC normalised to DMSO control of the molecule CC[C@]12CCCN3CCc4c(n(c5ccccc45)[C@@](O)(C(=O)OC)C1)[C@@H]32 with Vibrio cholerae. 0.995

State measured growth AUC normalised to DMSO control of the molecule O=c1oc2ccccc2c(O)c1Cc1c(O)c2ccccc2oc1=O with Vibrio cholerae. 0.891

State measured growth AUC normalised to DMSO control of the molecule Cn1nnc2c(C(N)=O)ncn2c1=O [Temozolomide] with Vibrio cholerae. 0.992

State measured growth AUC normalised to DMSO control of the molecule CC[C@@H](CO)NCCN[C@@H](CC)CO [Ethambutol dihydrochloride] with Vibrio cholerae. 1

State measured growth AUC normalised to DMSO control of the molecule CC(=O)CC(c1ccccc1)c1c(O)c2ccccc2oc1=O (stereo not given) with Vibrio cholerae. 0.945

State measured growth AUC normalised to DMSO control of the molecule COc1ccc2cc([C@@H](C)C(=O)O)ccc2c1 [(R) Naproxen sodium salt] with Vibrio cholerae. 1.06

State measured growth AUC normalised to DMSO control of the molecule CC(C)(C)NC[C@H](O)c1ccc(O)c(CO)c1 [Levalbuterol hydrochloride] with Vibrio cholerae. 1.01

State measured growth AUC normalised to DMSO control of the molecule CC(=O)CC(c1ccc([N+](=O)[O-])cc1)c1c(O)c2ccccc2oc1=O (stereo not given) with Vibrio cholerae. 0.938

State measured growth AUC normalised to DMSO control of the molecule COc1cc(OC)c(C(=O)CCCN2CCCC2)c(OC)c1 [Buflomedil hydrochloride] with Vibrio cholerae. 0.997

State measured growth AUC normalised to DMSO control of the molecule CN(C)CCC=C1c2ccccc2C=Cc2ccccc21 [Cyclobenzaprine hydrochloride] with Vibrio cholerae. 0.866

* * *

# Tested on: Vibrio cholerae
# measurementNotes: growth AUC normalised to DMSO control (fraction of control); higher = less growth inhibition, active = hit call of the paper
# conditions: 20 µM
Counter-ions that a name gives are not always drawn.
readoutType: growth AUC normalised to DMSO control

Quickly give me recorded growth AUC normalised to DMSO control for c1ccc2[nH]c(-c3cscn3)nc2c1 0.956 (inactive)

Quickly give me recorded growth AUC normalised to DMSO control for c1ccc(CC2=NCCN2)cc1 [Tolazoline hydrochloride] 1.02 (inactive)

Quickly give me recorded growth AUC normalised to DMSO control for CCCCOC(=O)c1ccc(N)cc1 0.989 (inactive)

Quickly give me recorded growth AUC normalised to DMSO control for O=C(O)CCNC(=O)c1ccc(/N=N/c2ccc(O)c(C(=O)O)c2)cc1 [Balsalazide disodium salt] 1.05 (inactive)

Quickly give me recorded growth AUC normalised to DMSO control for C[C@]12CCC(=O)C=C1C=C[C@@H]1[C@@H]2CC[C@@]2(C)[C@H]1CC[C@@]21CCC(=O)O1 1.03 (inactive)

Quickly give me recorded growth AUC normalised to DMSO control for N=C(N)NS(=O)(=O)c1ccc(N)cc1 1.04 (inactive)

Quickly give me recorded growth AUC normalised to DMSO control for CNCC[C@@H](Oc1ccccc1C)c1ccccc1 [Tomoxetine hydrochloride] 1.01 (inactive)

Quickly give me recorded growth AUC normalised to DMSO control for CC(=O)OC(C)C[N+](C)(C)C (centres undefined) [Methacholine chloride] 0.99 (inactive)

Quickly give me recorded growth AUC normalised to DMSO control for CC(C(=O)O)c1ccc(-c2ccccc2)c(F)c1 (centres undefined) 0.96 (inactive)

Quickly give me recorded growth AUC normalised to DMSO control for NCCNCCNCCNCCN [Tetraethylenepentamine pentahydrochloride] 0.979 (inactive)

Quickly give me recorded growth AUC normalised to DMSO control for C[C@]1(Cn2ccnn2)[C@H](C(=O)O)N2C(=O)C[C@H]2S1(=O)=O 0.972 (inactive)

Quickly give me recorded growth AUC normalised to DMSO control for CCOC(=O)C1=C(C)NC(C)=C(C(=O)OCC)C1c1ccccc1/C=C/C(=O)OC(C)(C)C 1.02 (inactive)

Quickly give me recorded growth AUC normalised to DMSO control for COc1cccc(N(C)C(=S)Oc2ccc3c(c2)CCCC3)n1 [Liranaftate] 1.01 (inactive)

Quickly give me recorded growth AUC normalised to DMSO control for CCn1cc(C(=O)O)c(=O)c2cnc(N3CCNCC3)nc21 0.0338 (active)

Quickly give me recorded growth AUC normalised to DMSO control for CNC(=O)c1c(I)c(C(=O)NCC(=O)Nc2c(I)c(C(=O)O)c(I)c(C(=O)NCCO)c2I)c(I)c(N(C)C(C)=O)c1I 1.01 (inactive)

Quickly give me recorded growth AUC normalised to DMSO control for C[N+]1(CCCCC[N+]2(C)CCCC2)CCCC1 [Pentolinium bitartrate] 0.874 (inactive)

Quickly give me recorded growth AUC normalised to DMSO control for O=C1CC2(CCCC2)CC(=O)N1CCCCN1CCN(c2ncccn2)CC1 [Buspirone hydrochloride] 1.04 (inactive)

Quickly give me recorded growth AUC normalised to DMSO control for CCN(CC)CCNC(C(=O)OCCC(C)C)c1ccccc1 (centres undefined) [Camylofine chlorhydrate] 0.953 (inactive)

Quickly give me recorded growth AUC normalised to DMSO control for Cc1cc(NC(=O)C2=C(O)c3ccccc3S(=O)(=O)N2C)no1 0.901 (inactive)
